- TARGET_OR_SYSTEM: CLK2 (human)
- MEASUREMENT_DESCRIPTION: radiometric filter-binding kinase assay, Kinase HotSpot
- DETAILS: compound 0.5 µM; ATP 10 µM
ASSAY_READOUT: residual activity
Write the numeric value and append its unit.

Example results:
> print(dat)
                               input.smiles  obs.value
1  Nc1n[nH]c2nnc(-c3c(-c4ccccc4)nn4ccccc34)cc12      94.9%
2      O=C(Nc1ccc(Cl)cc1)c1ccccc1NCc1ccncc1      91.8%

## Task What measured residual activity goes with CC(C)(C)c1nc2c3ccc(F)cc3c3c(=O)[nH]ccc3c2[nH]1 ?
## Result 93.9%

----------
Each entry below lists one item and its recorded residual activity value.
- TARGET_OR_SYSTEM: TTK (human) (UniProt P33981)
- Sequence (P33981 whole entry, looked up): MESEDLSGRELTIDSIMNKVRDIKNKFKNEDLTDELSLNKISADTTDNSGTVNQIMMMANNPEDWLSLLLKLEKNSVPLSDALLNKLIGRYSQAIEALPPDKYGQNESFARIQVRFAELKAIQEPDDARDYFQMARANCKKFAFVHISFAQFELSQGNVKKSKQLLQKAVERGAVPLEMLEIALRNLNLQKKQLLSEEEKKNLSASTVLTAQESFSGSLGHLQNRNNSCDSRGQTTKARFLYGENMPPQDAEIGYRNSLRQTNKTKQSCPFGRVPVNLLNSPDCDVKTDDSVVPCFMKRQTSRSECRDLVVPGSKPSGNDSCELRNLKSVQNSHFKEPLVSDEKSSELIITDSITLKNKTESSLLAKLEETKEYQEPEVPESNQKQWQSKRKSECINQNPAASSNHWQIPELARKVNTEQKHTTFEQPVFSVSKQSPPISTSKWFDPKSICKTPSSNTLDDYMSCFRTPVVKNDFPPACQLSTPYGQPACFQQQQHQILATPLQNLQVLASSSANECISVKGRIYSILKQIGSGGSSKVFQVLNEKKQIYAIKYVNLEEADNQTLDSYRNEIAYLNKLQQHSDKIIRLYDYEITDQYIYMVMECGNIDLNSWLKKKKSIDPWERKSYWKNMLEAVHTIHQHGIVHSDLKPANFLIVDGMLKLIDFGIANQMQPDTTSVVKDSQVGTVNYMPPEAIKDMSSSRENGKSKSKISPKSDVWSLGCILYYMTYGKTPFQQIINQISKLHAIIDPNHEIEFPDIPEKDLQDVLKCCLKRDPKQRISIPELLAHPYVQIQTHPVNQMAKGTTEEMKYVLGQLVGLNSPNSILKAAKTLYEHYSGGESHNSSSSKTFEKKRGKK
- MEASUREMENT_DESCRIPTION: radiometric filter-binding kinase assay, Kinase HotSpot
- DETAILS: compound 0.5 µM; ATP 10 µM
Field: numeric (%). Do not append units.

Example results:
> print(dat)
                                    molecule      assay.readout  measurement.unit  obs.value
 1  CS(=O)c1ccc(-c2nc(-c3ccc(F)cc3)c(-c3ccncc3)[nH]2)cc1 (stereo not drawn)  residual activity                 %       99.9
 2  C#Cc1cccc(Nc2ncnc3cc(OCCOC)c(OCCOC)cc23)c1  residual activity                 %       91.8
 3  O=C1Cc2c([nH]c3ccc([N+](=O)[O-])cc23)-c2ccccc2N1  residual activity                 %       87.4
 4     O=c1cc(N2CCNCC2)oc2c(-c3ccccc3)cccc12  residual activity                 %       91.4
 5  Oc1ccc(-c2nc(-c3ccc(F)cc3)c(-c3ccncc3)[nH]2)cc1  residual activity                 %        103
 6  NC(=O)c1ccc(N(C(N)=O)c2c(F)cccc2F)nc1-c1ccc(F)cc1F  residual activity                 %       98.8
 7  Nc1nc(Nc2ccc(S(N)(=O)=O)cc2)nn1C(=S)Nc1c(F)cccc1F  residual activity                 %       60.6
 8   O=C1Nc2ccccc2/C1=C\c1c(Cl)[nH]c2ccccc12  residual activity                 %        101
 9      O=C(Nc1ccc(Cl)cc1)c1ccccc1NCc1ccncc1  residual activity                 %        102
10  CSc1nc(-c2ccc(F)cc2)c(-c2ccnc(NC(C)c3ccccc3)c2)[nH]1 (stereo not drawn)  residual activity                 %        102

## Task What measured residual activity goes with Cc1cc2ncc(-c3ccccc3)nc2cc1C ?
## Result 91

## Task What measured residual activity goes with Cc1ccc(NC(=O)c2ccc(CN3CCN(C)CC3)cc2)cc1Nc1nc(-c2cccnc2)cs1 ?
## Result 112

## Task What measured residual activity goes with CCCNC(=O)Nc1ccc(Oc2ncnc3cc(OC)c(OC)cc23)cc1Cl ?
## Result 88.6

## Task What measured residual activity goes with CC(C)(C)c1nc2c3ccc(F)cc3c3c(=O)[nH]ccc3c2[nH]1 ?
## Result 65.3

## Task What measured residual activity goes with O=C1Nc2cc(Br)ccc2/C1=C1/Nc2ccccc2/C1=N\O ?
## Result 69.8

## Task What measured residual activity goes with COc1cc2nccc(Oc3ccc(NC(=S)NC(=O)c4ccccc4C)cc3)c2cc1OC ?
## Result 101

## Task What measured residual activity goes with CCN1/C(=C/C(C)=O)Sc2ccc(OC)cc21 ?
## Result 88.7

## Task What measured residual activity goes with O=C(NC(NC(=S)Nc1ccc(F)c([N+](=O)[O-])c1)C(Cl)(Cl)Cl)C(c1ccccc1)c1ccccc1 (stereo not drawn) ?
## Result 96.9

----------
- TARGET_OR_SYSTEM: CHEK2 (human) (UniProt O96017)
- Sequence (O96017 whole entry, looked up): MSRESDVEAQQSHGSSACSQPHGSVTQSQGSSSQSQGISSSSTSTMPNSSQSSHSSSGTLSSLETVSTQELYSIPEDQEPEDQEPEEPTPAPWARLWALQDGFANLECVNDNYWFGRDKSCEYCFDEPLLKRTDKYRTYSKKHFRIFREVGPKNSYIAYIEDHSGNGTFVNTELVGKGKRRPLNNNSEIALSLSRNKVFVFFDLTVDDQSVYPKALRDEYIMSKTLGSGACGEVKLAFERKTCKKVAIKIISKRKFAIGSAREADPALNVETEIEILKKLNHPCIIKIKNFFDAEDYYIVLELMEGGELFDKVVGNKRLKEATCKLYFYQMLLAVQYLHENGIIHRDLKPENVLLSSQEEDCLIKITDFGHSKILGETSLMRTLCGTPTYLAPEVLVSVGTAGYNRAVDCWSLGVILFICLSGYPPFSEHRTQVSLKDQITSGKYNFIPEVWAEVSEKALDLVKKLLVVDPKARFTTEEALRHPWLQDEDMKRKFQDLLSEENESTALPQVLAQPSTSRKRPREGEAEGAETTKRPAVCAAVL
- MEASUREMENT_DESCRIPTION: radiometric filter-binding kinase assay, Kinase HotSpot
- DETAILS: compound 0.5 µM; ATP 10 µM
ASSAY_READOUT: residual activity (%)
Field: numeric (%). Do not append units.

Example results:
> print(dat)
                                   compound      assay.readout  obs.value
1    Clc1ccc(Nc2nnc(Cc3ccncc3)c3ccccc23)cc1  residual activity       98.5
2  Cc1ccc(NC(=O)c2ccc(CN3CCN(C)CC3)cc2)cc1Nc1nc(-c2cccnc2)cs1  residual activity        101
3  O=C1Cc2c([nH]c3ccc([N+](=O)[O-])cc23)-c2ccccc2N1  residual activity        7.9
4  CC(C)(C)c1nc2c3ccc(F)cc3c3c(=O)[nH]ccc3c2[nH]1  residual activity      0.717
5  Oc1ccc(-c2nc(-c3ccc(F)cc3)c(-c3ccncc3)[nH]2)cc1  residual activity       98.9
6  COc1cc2ncnc(Nc3ccc(F)c(Cl)c3)c2cc1OCCCN1CCOCC1  residual activity         84

## Task What measured residual activity goes with Nc1nc(Nc2ccc(S(N)(=O)=O)cc2)nn1C(=O)c1c(F)cccc1F ?
## Result 63.6

## Task What measured residual activity goes with O=C1Nc2cc(Br)ccc2/C1=C1/Nc2ccccc2/C1=N\O ?
## Result 48.3

## Task What measured residual activity goes with O=c1cc(-c2cccc3c2Sc2ccccc2S3)oc(N2CCOCC2)c1 ?
## Result 102

## Task What measured residual activity goes with O=c1cc(N2CCNCC2)oc2c(-c3ccccc3)cccc12 ?
## Result 96.6

----------
- TARGET_OR_SYSTEM: WNK3 (human)
- MEASUREMENT_DESCRIPTION: radiometric filter-binding kinase assay, Kinase HotSpot
- DETAILS: compound 0.5 µM; ATP 10 µM
ASSAY_READOUT: residual activity
Write the numeric value and append its unit.

> print(dat)
                                   molecule  obs.value
1  O=C(NC(NC(=S)Nc1ccc(F)c([N+](=O)[O-])c1)C(Cl)(Cl)Cl)C(c1ccccc1)c1ccccc1 (stereo not drawn)       108%
2  O=C1Nc2cc(Br)ccc2/C1=C1/Nc2ccccc2/C1=N\O      93.8%
3      O=C(Nc1ccc(Cl)cc1)c1ccccc1NCc1ccncc1      92.9%

## Task What measured residual activity goes with O=c1cc(N2CCNCC2)oc2c(-c3ccccc3)cccc12 ?
## Result 93.4%

## Task What measured residual activity goes with O=C1Nc2ccccc2/C1=C\c1c(Cl)[nH]c2ccccc12 ?
## Result 101%

## Task What measured residual activity goes with Cc1cc2ncc(-c3ccccc3)nc2cc1C ?
## Result 103%

## Task What measured residual activity goes with CCN1/C(=C/C(C)=O)Sc2ccc(OC)cc21 ?
## Result 88.1%

## Task What measured residual activity goes with Oc1ccc(-c2nc(-c3ccc(F)cc3)c(-c3ccncc3)[nH]2)cc1 ?
## Result 101%

----------
Each entry below lists one item and its recorded residual activity value.
- TARGET_OR_SYSTEM: PAK3 (human) (UniProt O75914)
- Sequence (O75914 whole entry, looked up): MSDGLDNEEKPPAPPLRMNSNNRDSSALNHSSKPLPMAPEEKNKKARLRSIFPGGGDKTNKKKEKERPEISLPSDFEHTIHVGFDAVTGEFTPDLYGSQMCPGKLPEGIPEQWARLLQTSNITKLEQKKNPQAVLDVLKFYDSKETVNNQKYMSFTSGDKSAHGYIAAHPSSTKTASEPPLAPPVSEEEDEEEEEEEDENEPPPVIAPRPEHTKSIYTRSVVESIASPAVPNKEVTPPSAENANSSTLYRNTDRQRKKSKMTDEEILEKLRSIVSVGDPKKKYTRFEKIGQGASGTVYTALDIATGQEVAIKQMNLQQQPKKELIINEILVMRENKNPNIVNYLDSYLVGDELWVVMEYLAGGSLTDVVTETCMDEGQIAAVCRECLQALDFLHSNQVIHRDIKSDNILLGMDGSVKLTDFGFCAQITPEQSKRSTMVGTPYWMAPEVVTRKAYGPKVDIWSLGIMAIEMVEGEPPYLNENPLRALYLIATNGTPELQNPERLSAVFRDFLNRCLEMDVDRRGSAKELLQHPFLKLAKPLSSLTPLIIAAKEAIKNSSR
- MEASUREMENT_DESCRIPTION: radiometric filter-binding kinase assay, Kinase HotSpot
- DETAILS: compound 0.5 µM; ATP 10 µM
Field: numeric (%). Do not append units.

Example results:
> print(dat)
                                   compound      assay.readout  obs.value
1  CC(C)[C@H](CO)Nc1nc(Nc2cccc(Cl)c2)c2ncn(C(C)C)c2n1  residual activity       94.2
2    Clc1ccc(Nc2nnc(Cc3ccncc3)c3ccccc23)cc1  residual activity        107
3  COc1cc2nccc(Oc3ccc(NC(=S)NC(=O)c4ccccc4C)cc3)c2cc1OC  residual activity       99.7
4  O=C(NC(NC(=S)Nc1ccc(F)c([N+](=O)[O-])c1)C(Cl)(Cl)Cl)C(c1ccccc1)c1ccccc1 (stereo not drawn)  residual activity       91.9
5      O=C(Nc1ccc(Cl)cc1)c1ccccc1NCc1ccncc1  residual activity       95.5

## Task Checklist item: residual activity tested on PAK3 (human) (UniProt O75914), entry COc1cc2ncnc(Nc3ccc(F)c(Cl)c3)c2cc1OCCCN1CCOCC1 , value?
## Result 106

## Task Checklist item: residual activity tested on PAK3 (human) (UniProt O75914), entry CC(C)(C)c1nc2c3ccc(F)cc3c3c(=O)[nH]ccc3c2[nH]1 , value?
## Result 90.1

## Task Checklist item: residual activity tested on PAK3 (human) (UniProt O75914), entry CCN1/C(=C/C(C)=O)Sc2ccc(OC)cc21 , value?
## Result 96.3

## Task Checklist item: residual activity tested on PAK3 (human) (UniProt O75914), entry CC(C)n1cnc2c(Nc3cccc(Cl)c3)nc(NCCO)nc21 , value?
## Result 96.7

## Task Checklist item: residual activity tested on PAK3 (human) (UniProt O75914), entry O=C1Nc2ccccc2/C1=C\c1c(Cl)[nH]c2ccccc12 , value?
## Result 98.8

## Task Checklist item: residual activity tested on PAK3 (human) (UniProt O75914), entry CSc1nc(-c2ccc(F)cc2)c(-c2ccnc(NC(C)c3ccccc3)c2)[nH]1 (stereo not drawn) , value?
## Result 94.5

## Task Checklist item: residual activity tested on PAK3 (human) (UniProt O75914), entry O=c1cc(N2CCNCC2)oc2c(-c3ccccc3)cccc12 , value?
## Result 99.8

## Task Checklist item: residual activity tested on PAK3 (human) (UniProt O75914), entry C#Cc1cccc(Nc2ncnc3cc(OCCOC)c(OCCOC)cc23)c1 , value?
## Result 106
